Experiment: Peracetic acid generation from hydroxyapatite bound CE-7 perhydrolase fusions (Example 8)
Type: biochemical
Details: hydroxyapatite particles exposed to 10 μM enzyme, washed; 100 mM triacetin, 100 mM H2O2, 30 min, 37° C.; no enzyme 30-118.8
Measured Peracetic acid (ppm), listed per entry.
Answer in ppm, number only, no unit symbol.

Molecule	Peracetic acid (ppm)
EZ-9: C277S-link1-H6, SEQ ID NO: 430 (protein) MAFFDLPLEELKKYRPERYEEKDFDEFWEETLAESEKFPLDPVFERMESHLKTVEAYDVTFSGYRGQRIKGWLLVPKLEEEKLPCVVQYIGYNGGRGFPHDWLFWPSMGYICFVMDTRGQGSGWLKGDTPDYPEGPVDPQYPGFMTRGILDPRTYYYRRVFTDAVRAVEAAASFPQVDQERIVIAGGSQGGGIALAVSALSKKAKALLCDVPFLCHFRRAVQLVDTHPYAEITNFLKTHRDKEEIVFRTLSYFDGVNFAARAKIPALFSVGLMDNISPPSTVFAAYNYYAGPKEIRIYPYNNHEGGGSFQAVEQVKFLKKLFEKGGPGSGGAGSPGSAGGPGSHHHHHH	1885.1

For this molecule ( EZ-27: Bpu-link1-H6, SEQ ID NO: 451 (protein) MQLFDLSLEELKKYKPKKTARPDFSDFWKKSLEELRQVEAEPTLESYDYPVKGVKVYRLTYQSFGHSKIEGFYAVPDQTGPHPALVRFHGYNASYDGGIHDIVNWALHGYATFGMLVRGQGGSEDTSVTPGGHALGWMTKGILSKDTYYYRGVYLDAVRALEVIQSFPEVDEHRIGVIGGSQGGALAIAAAALSDIPKVVVADYPYLSNFERAVDVALEQPYLEINSYFRRNSDPKVEEKAFETLSYFDLINLAGWVKQPTLMAIGLIDKITPPSTVFAAYNHLETDKDLKVYRYFGHEFIPAFQTEKLSFLQKHLLLSTGPGSGGAGSPGSAGGPGSHHHHHH ), measured Peracetic acid (ppm) is 634.9
